Data provenance: patent US20240317847A1

Target: T1, human IL-11 (human, UniProt P20809 22-199)
T1 sequence: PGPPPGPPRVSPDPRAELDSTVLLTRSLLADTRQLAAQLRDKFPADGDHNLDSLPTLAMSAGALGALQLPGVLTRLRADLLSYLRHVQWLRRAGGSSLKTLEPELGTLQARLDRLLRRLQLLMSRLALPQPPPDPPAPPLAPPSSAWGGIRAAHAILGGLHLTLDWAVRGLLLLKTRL
Assay: cell-based or functional assay
Reported IC50, RGA 1 is given for each of the following binders.

Worked examples, 4 binders total:
binder="TPP-31302 (antibody, IgG4, V domains shown) VH: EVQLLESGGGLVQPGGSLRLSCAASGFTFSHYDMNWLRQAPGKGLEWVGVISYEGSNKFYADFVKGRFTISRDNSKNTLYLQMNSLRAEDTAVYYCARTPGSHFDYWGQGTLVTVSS VL: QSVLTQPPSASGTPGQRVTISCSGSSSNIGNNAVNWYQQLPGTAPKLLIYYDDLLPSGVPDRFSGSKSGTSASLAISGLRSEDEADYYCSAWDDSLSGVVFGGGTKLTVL" measure_name="IC50, RGA 1" value_measured="14.5 nM"
binder="TPP-31279 (antibody, IgG4, V domains shown) VH: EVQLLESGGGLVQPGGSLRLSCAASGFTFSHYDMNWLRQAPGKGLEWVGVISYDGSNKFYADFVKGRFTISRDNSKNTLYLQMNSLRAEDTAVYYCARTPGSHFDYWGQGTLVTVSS VL: QSVLTQPPSASGTPGQRVTISCSGSSSNIGNNAVYWYQQLPGTAPKLLIYYDDLLPSGVPDRFSGSKSGTSASLAISGLRSEDEADYYCSAWDDSLNGVVFGGGTKLTVL" measure_name="IC50, RGA 1" value_measured="> 500 nM"
binder="TPP-31293 (antibody, IgG4, V domains shown, hIgG4 SPLE, lambda) VH: EVQLLESGGGLVQPGGSLRLSCAASGFTFSHYDMNWVRQAPGKGLEWVGVISYDGSNKFYADFVKGRFTISRDNSKNTLYLQMNSLRAEDTAVYYCARTPGSHFDYWGQGTLVTVSS VL: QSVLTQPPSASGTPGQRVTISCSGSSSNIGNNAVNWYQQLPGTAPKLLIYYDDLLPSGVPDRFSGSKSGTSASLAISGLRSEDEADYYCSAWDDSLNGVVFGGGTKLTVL" measure_name="IC50, RGA 1" value_measured="58 nM"
binder="TPP-31301 (antibody, IgG4, V domains shown) VH: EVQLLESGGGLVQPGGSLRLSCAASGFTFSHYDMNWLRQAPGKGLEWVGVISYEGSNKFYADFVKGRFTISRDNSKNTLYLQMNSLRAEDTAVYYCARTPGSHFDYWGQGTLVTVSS VL: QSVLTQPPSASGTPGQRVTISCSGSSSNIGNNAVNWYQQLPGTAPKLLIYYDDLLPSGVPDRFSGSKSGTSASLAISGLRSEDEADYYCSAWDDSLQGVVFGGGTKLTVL" measure_name="IC50, RGA 1" value_measured="18.9 nM"

Q) Using the record for TPP-31295 (antibody, IgG4, V domains shown) VH: EVQLLESGGGLVQPGGSLRLSCAASGFTFSHYDMNWLRQAPGKGLEWVGVISYDGSNKYYADFVKGRFTISRDNSKNTLYLQMNSLRAEDTAVYYCARTPGSHFDYWGQGTLVTVSS VL: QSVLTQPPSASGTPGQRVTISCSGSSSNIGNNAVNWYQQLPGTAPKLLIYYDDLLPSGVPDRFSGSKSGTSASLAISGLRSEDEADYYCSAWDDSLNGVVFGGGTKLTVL , report its IC50, RGA 1.
A) 364 nM
